Experiment: solvent given as SMILES
Conditions: in CC1CCCO1
emission maximum reference

# CHEMICAL_STRUCTURE, UNIT_LABEL, emission maximum
data = [
    ("CN(C)c1ccc(C#Cc2ccccc2)cc1", "nm", 377.5),
    ("O=c1cc2c(-c3c(O)c4cccc5ccc6oc(=O)cc3c6c54)c(O)c3cccc4ccc(o1)c2c43", "nm", 552),
    ("c1ccc2c(c1)-c1ccccc1C21c2ccccc2-c2ncccc21", "nm", 333),
    ("Cn1c(=O)nc2n(C)c3ccccc3nc-2c1=O", "nm", 490),
]

----------
Assay: solvent given as SMILES
Settings: in c1ccccc1
MEASURE: emission maximum (nm)

# CHEMICAL_STRUCTURE, EXPERIMENTAL_VALUE
records = [
    ("O=C1CCCc2c1[nH]c1cc3c(cc21)OCO3", 384.12),
    ("CCOC(=O)CSc1nc(-c2ccccc2)c(C)c(C#N)c1C#N", 421),
    ("CCCCCCCCCCCCCCCCOC(=O)c1ccc(N(c2ccccc2)c2ccccc2)cc1", 412),
    ("COc1ccc(-c2c3ccc([nH]3)c3nc(c(-c4ccc([N+](=O)[O-])cc4)c4ccc([nH]4)c4ccc([nH]4)c(-c4ccc(OC)cc4)c4ccc2o4)C=C3)cc1", 739),
    ("CC1(C)Cc2c(c3ccccc3c3nc4ccccc4nc23)O1", 483.09),
]

----------
Item-by-item account of emission maximum
Test: solvent given as SMILES
Details: in C1CCCCC1
MEASURE: emission maximum (nm)

# CHEMICAL_STRUCTURE, MEASURE, EXPERIMENTAL_VALUE
records = [
    ("CCCCc1cc2cccc3cc(CCCC)c4cc(-c5cc6[b-]7c(c5)c(CCCC)cc5cccc(cc6CCCC)[n+]75)cc1[b-]4[n+]23", "emission maximum", 550),
    ("O=C1NC(=O)/C(=C\\c2ccccc2O)S1", "emission maximum", 397),
    ("Fc1ccc(-c2cc3ccc4cc(-c5ccc(F)cc5)cc5ccc(c2)c3c45)cc1", "emission maximum", 413.38),
    ("Nc1ccccc1C(=O)O", "emission maximum", 387),
    ("CC1(C)Cc2c(c3ccccc3c3nc4ccccc4nc23)O1", "emission maximum", 475.96),
    ("O=S1(=O)c2ccccc2-c2cc(-c3c4ccccc4cc4ccccc34)ccc21", "emission maximum", 403.35),
    ("Cc1cc2ccccc2cc1C", "emission maximum", 339.21),
    ("COc1ccc2c(c1)c1c(OC)c3ccccc3c(OC)c1n2C", "emission maximum", 431),
    ("OB(O)c1ccc(-c2ccc(N(c3ccccc3)c3ccccc3)cc2)cc1", "emission maximum", 384),
    ("CN(C)c1ccc(/C=C/c2ccc(-c3nc(C#N)c(C#N)n3C)cc2)cc1", "emission maximum", 437),
    ("CCCCCCOc1ccc2oc3c(c2c1)=CC1=C(c2ccccc2C)c2cc4c5cc(OCCCCCC)ccc5oc4n2[B-](F)(F)[N+]=31", "emission maximum", 603),
]

----------
Experiment: solvent given as SMILES
Settings: in ClCCl
We label by threshold. Values of emission maximum strictly beneath 500 nm are T. Values of 500 nm and up are F.

# MOLECULE, CATEGORY_LABEL
rows = [
    ("CC(C)[Si](C#Cc1ccc2c(C#C[Si](C(C)C)(C(C)C)C(C)C)cc3c4cc(C#C[Si](C(C)C)(C(C)C)C(C)C)ccc4c(C#C[Si](C(C)C)(C(C)C)C(C)C)cc3c2c1)(C(C)C)C(C)C", "T"),
    ("F[B-]1(F)n2c(-c3cccs3)cc(-c3cccs3)c2N=C2C(c3cccs3)=CC(c3cccs3)=[N+]21", "F"),
    ("COc1c2ccccc2c(OC)c2c1c1cc(C)ccc1n2C", "T"),
    ("c1cncc(-c2ccc(-c3c4ccccc4c(-c4ccc(-c5cccnc5)cc4)c4cc(-c5cccnc5)ccc34)cc2)c1", "T"),
    ("COc1ccc(-c2c3cc4ccccc4cc3c(C#Cc3ccccc3)c3cc4cc(C)sc4cc23)cc1", "F"),
    ("c1ccc2c(c1)-c1cc(-n3c4ccccc4c4ccccc43)ccc1C21c2ccccc2-n2c3ccccc3c3cccc1c32 (configuration not stated)", "T"),
    ("c1ccc(N(c2ccccc2)c2ccc(-c3ccc4c(c3)C3(c5ccccc5Oc5ccccc53)c3cc(-c5ccc(N(c6ccccc6)c6ccccc6)cc5)ccc3-4)cc2)cc1", "T"),
    ("O=S1(=O)c2ccccc2-c2cc(-c3c4ccccc4cc4ccccc34)ccc21", "T"),
    ("Fc1ccc(-c2cc3ccc4cc(-c5ccc(F)cc5)cc5ccc(c2)c3c45)cc1", "T"),
    ("COC(=O)C1CCN(c2ccc3c(N4CCCCC4)c4ccc(=[N+]5CCC(C(=O)OC)CC5)cc-4oc3c2)CC1 (configuration not stated)", "F"),
    ("c1ccc(-c2ccc(-c3cc(-c4ccccn4)nc(-c4ccccn4)c3)cc2)cc1", "T"),
    ("COc1cc(/C=C/c2nc(N3CCOCC3)c3c([n+]2[O-])CCCC3)cc(OC)c1OC", "F"),
    ("O=C1OC(=O)C2=C1[Se][C@]13C2=C[C@H](c2ccccc21)c1ccccc13", "F"),
    ("COc1ccccc1-c1nc(-c2ccccc2)c2ccccn12", "T"),
]

----------
Assay: solvent given as SMILES
Conditions: in CCCCCC

# CHEMICAL_STRUCTURE, UNIT_LABEL, emission maximum
rows = [
    ("O=c1c2cc(-n3c4ccccc4c4ccccc43)ccc2sc2ccc(-n3c4ccccc4c4ccccc43)cc12", "nm", 438),
    ("CC1=C(C(C)(C)C)C(C)=[N+]2C1=C(C)c1c(C)c(C(C)(C)C)c(C)n1[B-]2(F)F", "nm", 567.8),
    ("CC(C)[Si](C#Cc1c2nsnc2c(C#C[Si](C(C)C)(C(C)C)C(C)C)c2nc3c(ccc4cc5ccccc5cc43)nc12)(C(C)C)C(C)C", "nm", 605),
    ("COc1cccc(-n2c(-c3ccc(F)cc3)nc(C)c2C)c1", "nm", 369),
]

----------
Each item that follows carries a reported emission maximum.
Assay: solvent given as SMILES
Conditions: in OCC(F)(F)F
MEASURE: emission maximum (nm)

# CHEMICAL_STRUCTURE, EXPERIMENTAL_VALUE
measured = [
    ("CCC1=C(C)C2=C(C)c3c(I)c(I)cn3[B-](F)(F)[N+]2=C1C", 530.5),
    ("O=S(=O)([O-])c1cc([O-])c2ccc3c(S(=O)(=O)[O-])cc(S(=O)(=O)[O-])c4ccc1c2c34", 508),
    ("Cc1cc2c(o1)c(Br)cc1c(C)cc(=O)oc12", 436),
    ("N#Cc1cccc2cc[nH]c12", 391),
    ("Nc1ccccc1C(=O)O", 423),
    ("CCC1=C(C)C2=Cc3cc(I)c(I)n3[B-](F)(F)[N+]2=C1C", 548),
]

----------
Test: solvent given as SMILES
Settings: in C1CCCCC1
MEASURE: emission maximum

# CHEMICAL_STRUCTURE, MEASURE, EXPERIMENTAL_VALUE
measured = [
    ("C(#Cc1ncnc2ccccc12)c1ccc(N(c2ccccc2)c2ccccc2)cc1", "emission maximum", "433 nm"),
    ("COc1ccccc1-c1nc(-c2ccccc2)c2ccccn12", "emission maximum", "477 nm"),
    ("COC(=O)c1ccc(NC(=O)c2ccc(N(C)C)cc2)cc1", "emission maximum", "434 nm"),
    ("CN(C)c1ccc(C#Cc2ccccc2)cc1", "emission maximum", "344.99 nm"),
    ("CCCCN1c2ccccc2Sc2cc(/C=C/C3=Nc4ccc5ccccc5c4C3(C)C)ccc21", "emission maximum", "517 nm"),
    ("Cc1cc2c(o1)c(Br)cc1c(C)cc(=O)oc12", "emission maximum", "408 nm"),
]

----------
Experiment: solvent given as SMILES
Details: in Cc1ccccc1
// emission maximum lookup, one value per entry

# COMPOUND, UNIT_LABEL, emission maximum
data = [
    ("CCCCn1c2c(-c3ccc(N(c4ccccc4)c4ccccc4)cc3)cc(C#N)cc2c2cc(C#N)cc(-c3ccc(N(c4ccccc4)c4ccccc4)cc3)c21", "nm", 415),
    ("C(=C\\c1nc(/C=C/c2ccc(-n3c4ccccc4c4ccccc43)cc2)nc(/C=C/c2ccc(-n3c4ccccc4c4ccccc43)cc2)n1)/c1ccc(-n2c3ccccc3c3ccccc32)cc1", "nm", 453),
    ("c1ccc(-c2nc(-c3ccccc3)nc(-n3c4ccccc4c4cc(-n5c6ccccc6c6ccccc65)cc(-n5c6ccccc6c6ccccc65)c43)n2)cc1", "nm", 465.06),
    ("CC(C)(C)c1ccc2c(c1)B1c3cc(C(C)(C)C)ccc3Oc3cc(-n4c5ccccc5c5c6c(c7ccccc7n6-c6ccccc6)c6c(c7ccccc7n6-c6ccccc6)c54)cc(c31)O2", "nm", 456),
    ("CC1(C)c2ccccc2N(c2ccc3c(c2)c2cc(N4c5ccccc5C(C)(C)c5ccccc54)ccc2c2nc4ccccc4nc32)c2ccccc21", "nm", 553),
    ("Cc1cc(C)c(B(c2c(C)cc(C)cc2C)c2ccc3ccc4cccc5ccc2c3c45)c(C)c1", "nm", 423),
    ("[C-]#[N+]c1ccc(-c2ccc(N(C)C)cc2)cc1", "nm", 387),
    ("CCC1=[N+]2c3c(c4ccc(Oc5c(C)cc(C)cc5C)c5cc6c(Oc7c(C)cc(C)cc7C)ccc7c8cc(CC)n(c8c3c(c54)c67)[B-]2(F)F)=C1", "nm", 924),
    ("CN(c1ccccc1)c1ccc(-c2ccc(-c3ccc(N(C)c4ccccc4)cc3)c3nc(-c4ccccc4)c(-c4ccccc4)nc23)cc1", "nm", 627),
    ("CCCCN1C(=O)c2cccc3cccc(c23)C1=O", "nm", 392),
    ("c1ccc(-c2nc(-c3ccc(-c4ccc(N(c5ccccc5)c5ccccc5)cc4)cn3)oc2-c2ccccc2)cc1", "nm", 435),
    ("CCCCC1(CCCC)c2cc(C#Cc3ccc4ccc5cccc6ccc3c4c56)ccc2-c2ccc(C#Cc3ccc4ccc5cccc6ccc3c4c56)cc21", "nm", 438),
    ("O=c1oc2ccccc2cc1-c1cc2ccccc2o1", "nm", 431),
    ("N#C/C(=C/Nc1ccc(C#N)cc1)c1nc(-c2ccccc2)cs1", "nm", 438),
    ("c1ccc2c(c1)[nH]c1c3[nH]c4ccccc4c3c3nsnc3c21", "nm", 456),
    ("Cc1cc(-c2nc(-c3ccccc3)nc(-c3ccccc3)n2)ccc1N1c2ccccc2CCc2ccccc21", "nm", 481.75),
    ("CC1(C)c2ccccc2N(c2ccc(-c3nnc(-c4ccccc4)o3)cc2)c2ccccc21", "nm", 450),
    ("CCN(CC)c1ccc2cc(/C=C/C(=C(C#N)C#N)c3ccc4c(c3)c3ccccc3n4CC)c(=O)oc2c1", "nm", 571),
    ("Cc1c(-c2ccc(N3c4ccccc4C(C)(C)c4ccccc43)cc2)ncnc1-c1ccc(N2c3ccccc3C(C)(C)c3ccccc32)cc1", "nm", 477),
    ("CN(C)c1ccc(/C=C2\\CC/C(=C\\c3ccc(C#N)cc3)C2=O)cc1", "nm", 558),
    ("c1cc2c3cc1c1ccc4c(c1)c1cc(ccc1[C@]15OCCO[C@]41OCCO5)c1ccc4c(c1)c1cc(ccc1[C@]15OCCO[C@]41OCCO5)c1ccc(c3c1)[C@]13OCCO[C@]21OCCO3", "nm", 343),
    ("c1ccc2c(c1)Sc1ccccc1N2c1ccc2c(c1)C1(c3ccccc3-c3ccccc31)c1cc(N3c4ccccc4Sc4ccccc43)ccc1-2", "nm", 498),
    ("F[B-]1(F)n2c(c3cccc4cccc2c43)=Nc2sc3ccccc3[n+]21", "nm", 504),
    ("Cc1cc(-c2nc(-c3ccccc3)nc(-c3ccccc3)n2)cc(C)c1N1c2ccccc2CCc2ccccc21", "nm", 475.79),
    ("CC(C)(C)c1ccc2c(c1)c1cc(C(C)(C)C)ccc1n2-c1ccccc1-c1nc(-c2ccccc2-n2c3ccc(C(C)(C)C)cc3c3cc(C(C)(C)C)ccc32)nc(-c2ccccc2P(=O)(c2ccccc2)c2ccccc2)n1", "nm", 493.22),
    ("O=Cc1ccc(N(c2ccc(C=O)cc2)c2ccc(-c3ccc4c(c3)C(=O)c3ccccc3C4=O)cc2)cc1", "nm", 558),
    ("Cc1cc(-c2nc(-c3ccccc3)nc(-c3ccccc3)n2)ccc1N1c2ccccc2C2(c3ccccc3-c3ccccc32)c2ccccc21", "nm", 481),
    ("CCOC(=O)/C(C#N)=C\\c1cn(-c2ccccc2)nc1-c1ccccc1", "nm", 407),
    ("CC(C)(C)c1ccc2c(c1)c1cc(C(C)(C)C)ccc1n2-c1cc(C(=O)c2ccccc2)cc(-n2c3ccc(C(C)(C)C)cc3c3cc(C(C)(C)C)ccc32)c1", "nm", 466.36),
    ("OCC1O[C@@H](Cc2cc(O)cc(/C=C/c3ccc(O)c(O)c3)c2)[C@H](O)[C@@H](O)[C@@H]1O (stereo not given in full)", "nm", 371),
]
